B1: FBXO3 (parent)
chain: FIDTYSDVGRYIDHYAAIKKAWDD

- Variants of: B1
- assay remarks: protein stability index of a GFP-peptide fusion (GPS, HEK-293T) (PSI 1-6); higher = more stable;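 note: lentivirally expressed fusions sorted by FACS into six bins by GFP to DsRed ratio, PSI derived from sequencing read proportions per bin multiplied by bin number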
- condition set: c terminus: a fixed tail appended
Would you kindly list protein stability index for each of these variants?

Would you kindly share the measured protein stability index for FIDHYSDVGRYIDHYAAIKKAWDD [T4H] ? 1.88

Next record, please: FIDFYSDVGRYIDHYAAIKKAWDD [T4F] 2.28

Next record, please: FIDTYSDVGQYIDHYAAIKKAWDD [R10Q] 2.58

Next record, please: FIDTYSDVGRYIDHYAANKKAWDD [I18N] 1.46

Next record, please: FIDTYSDVGRYIDSYAAIKKAWDD [H14S] 2.49

Next record, please: FIDTYSDVGRYIDHYAAIKRAWDD [K20R] 1.67

Next record, please: FIDTYSYVGRYIDHYAAIKKAWDD [D7Y] 2.01

Next record, please: FIDTYSDVGRYIDHYAAIKKAWDV [D24V] 2.6

Next record, please: FIDTYSDVGEYIDHYAAIKKAWDD [R10E] 2.56

Next record, please: FIDTYSDVGRYIDHYATIKKAWDD [A17T] 1.68

Next record, please: FIDTYSDVGRYIDHYAAIKKAWFD [D23F] 1.87

Next record, please: FIDTYSDVGREIDHYAAIKKAWDD [Y11E] 1.38

Next record, please: FIDTHSDVGRYIDHYAAIKKAWDD [Y5H] 2.13

Next record, please: FIDTYGDVGRYIDHYAAIKKAWDD [S6G] 1.94

Next record, please: FIDEYSDVGRYIDHYAAIKKAWDD [T4E] 2.67

Next record, please: FIDTYSDVGRYADHYAAIKKAWDD [I12A] 2.21

Next record, please: FIDTYSDVGRYIDHYAAIKKAWDM [D24M] 1.82

Next record, please: FIDTYSDVGRYIDHYAAIKKAWDT [D24T] 2.51

Next record, please: FIDTYSDVGRYIMHYAAIKKAWDD [D13M] 2.07

Next record, please: FIDTYSDVGRYIDHYAAIYKAWDD [K19Y] 1.64

Next record, please: FIDTYSDVGRYIDHHAAIKKAWDD [Y15H] 2.32

Next record, please: FIDAYSDVGRYIDHYAAIKKAWDD [T4A] 2.41

Next record, please: FIDTYSDVGWYIDHYAAIKKAWDD [R10W] 1.46

Next record, please: FIDTYSDVGDYIDHYAAIKKAWDD [R10D] 2.32

Next record, please: FIDPYSDVGRYIDHYAAIKKAWDD [T4P] 1.86

Next record, please: FIDTYSDVGRYEDHYAAIKKAWDD [I12E] 1.99

Next record, please: FIDTYSDVGRYIDHYAAIKKADDD [W22D] 2.05

Next record, please: FIDTYSDVGRWIDHYAAIKKAWDD [Y11W] 2.39

Next record, please: KIDTYSDVGRYIDHYAAIKKAWDD [F1K] 2.47

Next record, please: FIDTYSDVGSYIDHYAAIKKAWDD [R10S] 2.1

Next record, please: FIDTYSDVGRYIDHYAASKKAWDD [I18S] 2.13

Next record, please: FIITYSDVGRYIDHYAAIKKAWDD [D3I] 2.33

Next record, please: FIDTYSDVGRYIDHYAAIKKAWCD [D23C] 2.82

Next record, please: FIDTYSDVGRYIDHYAAIKKAWRD [D23R] 1.72

Next record, please: FIDTYSDVGRYIWHYAAIKKAWDD [D13W] 2.51

Next record, please: FIDTYSHVGRYIDHYAAIKKAWDD [D7H] 1.63

Next record, please: FIDTYSDVGRYVDHYAAIKKAWDD [I12V] 2

Next record, please: FIDTYSDVGRYIDHYAAGKKAWDD [I18G] 2.38

Next record, please: FIDTYSDVGRYIDHYAAIKIAWDD [K20I] 2.59

Next record, please: FIDTYSDVMRYIDHYAAIKKAWDD [G9M] 3.14

Next record, please: FIDTYSDVGRYIDHYQAIKKAWDD [A16Q] 1.81

Next record, please: FIDTYSSVGRYIDHYAAIKKAWDD [D7S] 2.32

Next record, please: FIGTYSDVGRYIDHYAAIKKAWDD [D3G] 3.01

Next record, please: FIDTYSDVGRYIGHYAAIKKAWDD [D13G] 2.6

Next record, please: FIDTYSDVGRYIDHNAAIKKAWDD [Y15N] 1.97

Next record, please: FIDTYSDVGRLIDHYAAIKKAWDD [Y11L] 1.42

Next record, please: AIDTYSDVGRYIDHYAAIKKAWDD [F1A] 3.39

Next record, please: FIDTGSDVGRYIDHYAAIKKAWDD [Y5G] 2.21

Next record, please: MIDTYSDVGRYIDHYAAIKKAWDD [F1M] 2.79

Next record, please: FIDTYSDVGKYIDHYAAIKKAWDD [R10K] 1.82

Next record, please: FIDTYSDVGRYSDHYAAIKKAWDD [I12S] 1.32

Next record, please: FIDTYSDVGRYICHYAAIKKAWDD [D13C] 1.77

Next record, please: FIDTYSDRGRYIDHYAAIKKAWDD [V8R] 1.59

Next record, please: FIDTYSDVQRYIDHYAAIKKAWDD [G9Q] 2.03

Next record, please: FIDTYSDVGRYIDHYAAAKKAWDD [I18A] 2.03

Next record, please: FIDTYSDVGRHIDHYAAIKKAWDD [Y11H] 1.78

Next record, please: FIDTYSDVGRYIDHYAAIKKAQDD [W22Q] 1.26

Next record, please: FIDTYSDVGRYIDHYAAIKKAIDD [W22I] 2.1

Next record, please: FIDTYSDVGRYIDHYAALKKAWDD [I18L] 2.11

Next record, please: FIDTYSDVGRYIDHTAAIKKAWDD [Y15T] 1.82

Next record, please: FIDDYSDVGRYIDHYAAIKKAWDD [T4D] 2.04

Next record, please: FIDTYSDVGRYIDHYAAIKKAEDD [W22E] 2.1

Next record, please: FIDTYSDVGRYIDHYAAIKKKWDD [A21K] 1.88

Next record, please: FIDTYSDVGVYIDHYAAIKKAWDD [R10V] 2.86

Next record, please: FIDTYSDVGRYIDHYAAIKKALDD [W22L] 2.29

Next record, please: FIDTSSDVGRYIDHYAAIKKAWDD [Y5S] 2.5

Next record, please: FIDTYSDVGRYIDHYAAIKKAFDD [W22F] 1.39

Next record, please: FIDTFSDVGRYIDHYAAIKKAWDD [Y5F] 2.19

Next record, please: FIDTYSDVGRYTDHYAAIKKAWDD [I12T] 1.93

Next record, please: DIDTYSDVGRYIDHYAAIKKAWDD [F1D] 3.74

Next record, please: FIDTYSDVGRYIDAYAAIKKAWDD [H14A] 2.01

Next record, please: FIDTYSDVGRYIDHYAAIKKCWDD [A21C] 1.82

Next record, please: FIDTYSDVGRYIDHYAAEKKAWDD [I18E] 1.97

Next record, please: FIDTYMDVGRYIDHYAAIKKAWDD [S6M] 1.77

Next record, please: FIDTYSDVGRTIDHYAAIKKAWDD [Y11T] 1.59

Next record, please: FIDTYSDVGRYIDHYAAIDKAWDD [K19D] 2.46

Next record, please: FIDTYSDVGRYIDHYAAIKKAGDD [W22G] 1.85

Next record, please: FIDTYSDVGMYIDHYAAIKKAWDD [R10M] 1.75

Next record, please: FIDTYSDVGRYPDHYAAIKKAWDD [I12P] 2.05

Next record, please: FIDTYSDKGRYIDHYAAIKKAWDD [V8K] 2.02

Next record, please: FIDTYSDVGRYIDHYAAIKKAWDP [D24P] 2.28

Next record, please: FIDTYLDVGRYIDHYAAIKKAWDD [S6L] 2.17

Next record, please: FIDTYSDVGRYIDHYAAIFKAWDD [K19F] 1.84

Next record, please: FIDTNSDVGRYIDHYAAIKKAWDD [Y5N] 2.21

Next record, please: FIDTYSDVGRYIDHYAAIKKPWDD [A21P] 1.97

Next record, please: FTDTYSDVGRYIDHYAAIKKAWDD [I2T] 2.32

Next record, please: FIDTYSDVGRSIDHYAAIKKAWDD [Y11S] 2.2

Next record, please: FIDTYSKVGRYIDHYAAIKKAWDD [D7K] 2.19

Next record, please: FIDTYSDVGRYIDHPAAIKKAWDD [Y15P] 1.57

Next record, please: FIDTYSDVGRYYDHYAAIKKAWDD [I12Y] 1.98

Next record, please: FIDTYSDVGRYIDHYAAIKGAWDD [K20G] 1.81
